Settings: in DMF, 298.15 K
observable: solubility (mole fraction)
// keep it numeric: no unit symbol after the value

Ask: // lookup solubility (mole fraction) for Nc1cnc(Br)cn1
Result: 0.0133

----------
Details: in n-butanol, 298.15 K
observable: solubility (mole fraction)

Ask: // lookup solubility (mole fraction) for Nc1cnc(Br)cn1
Result: 0.00853

----------
Conditions: in ethylene glycol, 313.15 K
observable: solubility (mole fraction)

Ask: // lookup solubility (mole fraction) for Nc1cnc(Br)cn1
Result: 0.00149

----------
Conditions: in ethanol, 303.15 K
observable: solubility (mole fraction)
// keep it numeric: no unit symbol after the value

Ask: // lookup solubility (mole fraction) for Nc1cnc(Br)cn1
Result: 0.00243
